All values here come from ChEMBL document CHEMBL1130059.

ASSAYED SYSTEM: Choline O-acetyltransferase (Rattus norvegicus) (UniProt P32738)
Sequence (P32738 whole entry): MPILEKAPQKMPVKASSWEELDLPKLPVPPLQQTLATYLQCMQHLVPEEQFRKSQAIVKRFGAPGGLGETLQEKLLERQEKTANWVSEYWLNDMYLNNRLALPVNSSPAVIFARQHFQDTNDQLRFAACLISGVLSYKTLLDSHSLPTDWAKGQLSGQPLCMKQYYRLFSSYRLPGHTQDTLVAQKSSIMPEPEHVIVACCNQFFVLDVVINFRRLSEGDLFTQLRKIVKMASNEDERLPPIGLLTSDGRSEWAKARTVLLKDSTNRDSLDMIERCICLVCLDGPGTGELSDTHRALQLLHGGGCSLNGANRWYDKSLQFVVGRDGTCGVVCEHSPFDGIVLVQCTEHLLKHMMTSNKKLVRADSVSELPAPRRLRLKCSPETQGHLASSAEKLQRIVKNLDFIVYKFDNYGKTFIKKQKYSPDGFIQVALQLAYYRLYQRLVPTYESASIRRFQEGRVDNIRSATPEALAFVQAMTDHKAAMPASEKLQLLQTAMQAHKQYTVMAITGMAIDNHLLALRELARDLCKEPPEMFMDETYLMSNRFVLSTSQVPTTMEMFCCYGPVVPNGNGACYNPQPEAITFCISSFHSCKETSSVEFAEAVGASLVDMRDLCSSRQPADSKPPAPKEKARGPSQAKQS
ASSAY INFO: Neurotrophic activity as measured by the ability to enhance basal forebrain choline acetyl transferase at 250 nM
Type: functional
Values of Control greater than or equal to 200% map to 1; values below map to 0.

API: above_or_equal(metric=Control, cutoff=200%) for item COC(=O)[C@@]1(O)C[C@H]2O[C@]1(C)n1c3ccccc3c3c4c(c5c6ccccc6n2c5c31)C(=O)NC4 [K-252A] 1

// inclusive: Control at least 200%? input: C=CCSCc1ccc2c(c1)c1c3c(c4c5cc(CSCC=C)ccc5n5c4c1n2C1C[C@](O)(C(=O)OC)[C@]5(C)O1)CNC3=O 0

Assess whether reported Control for COC(=O)[C@@]1(O)CC2O[C@]1(C)n1c3ccc(CSCCN(C)C)cc3c3c4c(c5c6cc(CSCCN(C)C)ccc6n2c5c31)C(=O)NC4 sits at 200% or higher. 0

In plain terms: is recorded Control at least 200% for CCCSCc1ccc2c(c1)c1c3c(c4c5cc(CSCCC)ccc5n5c4c1n2C1C[C@](O)(C(=O)OC)[C@]5(C)O1)CNC3=O ? 0

Hello, I need to know if CCOCc1ccc2c(c1)c1c3c(c4c5cc(COCC)ccc5n5c4c1n2C1C[C@](O)(C(=O)OC)[C@]5(C)O1)CNC3=O has measured Control not below 200%. Thanks! 1

Could you verify whether the entry COCc1ccc2c(c1)c1c3c(c4c5cc(COC)ccc5n5c4c1n2C1C[C@](O)(C(=O)OC)[C@]5(C)O1)CNC3=O shows Control of no less than 200%? 1

Confirm if Control reported for the molecule CCSCc1ccc2c(c1)c1c3c(c4c5cc(CSCC)ccc5n5c4c1n2C1C[C@](O)(C(=O)OC)[C@]5(C)O1)CNC3=O is 200% or above. 1

====

Lab note: IC50 readings collected with High affinity nerve growth factor receptor (Homo sapiens, UniProt P04629) for the following compounds.
Sequence (P04629 whole entry): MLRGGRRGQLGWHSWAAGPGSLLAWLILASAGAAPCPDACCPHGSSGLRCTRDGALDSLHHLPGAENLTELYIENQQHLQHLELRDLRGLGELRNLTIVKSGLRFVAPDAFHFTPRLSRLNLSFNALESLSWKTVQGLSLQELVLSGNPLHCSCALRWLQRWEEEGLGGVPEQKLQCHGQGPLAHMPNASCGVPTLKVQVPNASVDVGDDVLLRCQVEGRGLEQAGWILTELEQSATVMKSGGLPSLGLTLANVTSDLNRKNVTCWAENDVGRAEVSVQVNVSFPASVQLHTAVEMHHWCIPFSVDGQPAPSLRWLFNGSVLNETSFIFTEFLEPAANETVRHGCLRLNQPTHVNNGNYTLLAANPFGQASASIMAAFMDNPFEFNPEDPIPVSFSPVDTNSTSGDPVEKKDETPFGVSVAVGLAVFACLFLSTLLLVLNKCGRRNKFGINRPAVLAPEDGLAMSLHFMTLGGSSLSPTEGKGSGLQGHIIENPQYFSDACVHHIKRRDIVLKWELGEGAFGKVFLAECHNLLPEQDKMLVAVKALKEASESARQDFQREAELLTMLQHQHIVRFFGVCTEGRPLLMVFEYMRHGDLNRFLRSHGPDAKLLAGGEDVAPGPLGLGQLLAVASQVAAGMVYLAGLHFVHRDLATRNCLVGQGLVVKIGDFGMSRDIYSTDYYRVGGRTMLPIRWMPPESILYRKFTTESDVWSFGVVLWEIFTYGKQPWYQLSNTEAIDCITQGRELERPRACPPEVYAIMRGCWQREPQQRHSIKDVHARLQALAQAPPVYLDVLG

State recorded IC50 with High affinity nerve growth factor receptor (Homo sapiens, UniProt P04629), entry CCCCSCc1ccc2c(c1)c1c3c(c4c5cc(CSCCCC)ccc5n5c4c1n2C1C[C@](O)(C(=O)OC)[C@]5(C)O1)CNC3=O , no comment. > 1 µM

Give IC50 only, for COC(=O)[C@@]1(O)CC2O[C@]1(C)n1c3ccc(CSC(C)C)cc3c3c4c(c5c6cc(CSC(C)C)ccc6n2c5c31)C(=O)NC4 , using High affinity nerve growth factor receptor (Homo sapiens, UniProt P04629) data. > 1 µM

Provide the reported IC50 (system: High affinity nerve growth factor receptor (Homo sapiens, UniProt P04629)) for C=CCSCc1ccc2c(c1)c1c3c(c4c5cc(CSCC=C)ccc5n5c4c1n2C1C[C@](O)(C(=O)OC)[C@]5(C)O1)CNC3=O > 1 µM

Quote IC50 with test system High affinity nerve growth factor receptor (Homo sapiens, UniProt P04629) for CCOCc1ccc2c(c1)c1c3c(c4c5cc(COCC)ccc5n5c4c1n2C1C[C@](O)(C(=O)OC)[C@]5(C)O1)CNC3=O 0.21 µM

Jot down IC50 (High affinity nerve growth factor receptor (Homo sapiens, UniProt P04629)) of CCCSCc1ccc2c(c1)c1c3c(c4c5cc(CSCCC)ccc5n5c4c1n2C1C[C@](O)(C(=O)OC)[C@]5(C)O1)CNC3=O . > 1 µM

Provide the reported IC50 (system: High affinity nerve growth factor receptor (Homo sapiens, UniProt P04629)) for COCc1ccc2c(c1)c1c3c(c4c5cc(COC)ccc5n5c4c1n2C1C[C@](O)(C(=O)OC)[C@]5(C)O1)CNC3=O 0.27 µM

Answer briefly: IC50 recorded on High affinity nerve growth factor receptor (Homo sapiens, UniProt P04629) for CCSCc1ccc2c(c1)c1c3c(c4c5cc(CSCC)ccc5n5c4c1n2C1C[C@](O)(C(=O)OC)[C@]5(C)O1)CNC3=O > 1 µM

====

ASSAYED SYSTEM: Choline O-acetyltransferase (Rattus norvegicus)
ASSAY INFO: Neurotrophic activity as measured by the ability to enhance embryonic rat spinal cord choline acetyl transferase at 30 nM
Assay type: functional
OBSERVABLE: Control

Return value of Control for input CCOCc1ccc2c(c1)c1c3c(c4c5cc(COCC)ccc5n5c4c1n2C1C[C@](O)(C(=O)OC)[C@]5(C)O1)CNC3=O , no commentary. 153%

Supply Control value. Item: CCSCc1ccc2c(c1)c1c3c(c4c5cc(CSCC)ccc5n5c4c1n2C1C[C@](O)(C(=O)OC)[C@]5(C)O1)CNC3=O 140%

Give the value of Control reported for the following: CCCCSCc1ccc2c(c1)c1c3c(c4c5cc(CSCCCC)ccc5n5c4c1n2C1C[C@](O)(C(=O)OC)[C@]5(C)O1)CNC3=O < 120%

====

ASSAYED SYSTEM: Protein kinase C (PKC)
ASSAY INFO: Inhibition of Protein kinase C of Rat brain
OBSERVABLE: pIC50
Expect pIC50 as a plain number equal to -log10 of the molar concentration.

Consider the compound CCSCc1ccc2c(c1)c1c3c(c4c5cc(CSCC)ccc5n5c4c1n2C1C[C@](O)(C(=O)OC)[C@]5(C)O1)CNC3=O . State its measured pIC50. 4.79

====

ASSAYED SYSTEM: Choline O-acetyltransferase (Rattus norvegicus) (UniProt P32738)
ASSAY INFO: Neurotrophic activity as measured by the ability to enhance embryonic rat spinal cord choline acetyl transferase at 300 nM
Format: functional
Mark each entry met if its Control sits below 200%, and not met for all others.

Threshold test, Control < 200%: C=CCSCc1ccc2c(c1)c1c3c(c4c5cc(CSCC=C)ccc5n5c4c1n2C1C[C@](O)(C(=O)OC)[C@]5(C)O1)CNC3=O not met

Bench note: check whether CCCSCc1ccc2c(c1)c1c3c(c4c5cc(CSCCC)ccc5n5c4c1n2C1C[C@](O)(C(=O)OC)[C@]5(C)O1)CNC3=O shows Control below 200% not met

Lab note: confirm whether the reported Control for this molecule is below 200%, equality not counting. molecule: COC(=O)[C@@]1(O)CC2O[C@]1(C)n1c3ccc(CO)cc3c3c4c(c5c6cc(CO)ccc6n2c5c31)C(=O)NC4 met

Please determine if COCc1ccc2c(c1)c1c3c(c4c5cc(COC)ccc5n5c4c1n2C1C[C@](O)(C(=O)OC)[C@]5(C)O1)CNC3=O is below 200% in terms of Control. not met

Take the molecule CCSCc1ccc2c(c1)c1c3c(c4c5cc(CSCC)ccc5n5c4c1n2C1C[C@](O)(C(=O)OC)[C@]5(C)O1)CNC3=O and say whether its Control is less than 200%. not met

is_below(Control, 200%) for CCCCSCc1ccc2c(c1)c1c3c(c4c5cc(CSCCCC)ccc5n5c4c1n2C1C[C@](O)(C(=O)OC)[C@]5(C)O1)CNC3=O ? not met

For this molecule, is Control lower than 200%? COC(=O)[C@@]1(O)CC2O[C@]1(C)n1c3ccc(CSCCN(C)C)cc3c3c4c(c5c6cc(CSCCN(C)C)ccc6n2c5c31)C(=O)NC4 not met

Given COC(=O)[C@@]1(O)C[C@H]2O[C@]1(C)n1c3ccccc3c3c4c(c5c6ccccc6n2c5c31)C(=O)NC4 [K-252A] , is recorded Control strictly lower than 200%? met

Say whether its Control is strictly beneath 200%. Entry: COC(=O)[C@@]1(O)CC2O[C@]1(C)n1c3ccc(CSC(C)C)cc3c3c4c(c5c6cc(CSC(C)C)ccc6n2c5c31)C(=O)NC4 not met

State whether 200% exceeds Control recorded for CCOCc1ccc2c(c1)c1c3c(c4c5cc(COCC)ccc5n5c4c1n2C1C[C@](O)(C(=O)OC)[C@]5(C)O1)CNC3=O . met

====

ASSAYED SYSTEM: cAMP-dependent protein kinase alpha-catalytic subunit (Oryctolagus cuniculus)
ASSAY INFO: Inhibition of cAMP dependent Protein kinase A of rabbit Skeletal Muscle.
OBSERVABLE: pIC50
# pIC50 is unitless: minus log10 of the molar concentration; print number only

Tell us which pIC50 value is on record for COC(=O)[C@@]1(O)C[C@H]2O[C@]1(C)n1c3ccccc3c3c4c(c5c6ccccc6n2c5c31)C(=O)NC4 [K-252A] 7.80

====

ASSAYED SYSTEM: Myosin light chain kinase, smooth muscle (Gallus gallus, UniProt P11799)
Sequence (P11799 whole entry): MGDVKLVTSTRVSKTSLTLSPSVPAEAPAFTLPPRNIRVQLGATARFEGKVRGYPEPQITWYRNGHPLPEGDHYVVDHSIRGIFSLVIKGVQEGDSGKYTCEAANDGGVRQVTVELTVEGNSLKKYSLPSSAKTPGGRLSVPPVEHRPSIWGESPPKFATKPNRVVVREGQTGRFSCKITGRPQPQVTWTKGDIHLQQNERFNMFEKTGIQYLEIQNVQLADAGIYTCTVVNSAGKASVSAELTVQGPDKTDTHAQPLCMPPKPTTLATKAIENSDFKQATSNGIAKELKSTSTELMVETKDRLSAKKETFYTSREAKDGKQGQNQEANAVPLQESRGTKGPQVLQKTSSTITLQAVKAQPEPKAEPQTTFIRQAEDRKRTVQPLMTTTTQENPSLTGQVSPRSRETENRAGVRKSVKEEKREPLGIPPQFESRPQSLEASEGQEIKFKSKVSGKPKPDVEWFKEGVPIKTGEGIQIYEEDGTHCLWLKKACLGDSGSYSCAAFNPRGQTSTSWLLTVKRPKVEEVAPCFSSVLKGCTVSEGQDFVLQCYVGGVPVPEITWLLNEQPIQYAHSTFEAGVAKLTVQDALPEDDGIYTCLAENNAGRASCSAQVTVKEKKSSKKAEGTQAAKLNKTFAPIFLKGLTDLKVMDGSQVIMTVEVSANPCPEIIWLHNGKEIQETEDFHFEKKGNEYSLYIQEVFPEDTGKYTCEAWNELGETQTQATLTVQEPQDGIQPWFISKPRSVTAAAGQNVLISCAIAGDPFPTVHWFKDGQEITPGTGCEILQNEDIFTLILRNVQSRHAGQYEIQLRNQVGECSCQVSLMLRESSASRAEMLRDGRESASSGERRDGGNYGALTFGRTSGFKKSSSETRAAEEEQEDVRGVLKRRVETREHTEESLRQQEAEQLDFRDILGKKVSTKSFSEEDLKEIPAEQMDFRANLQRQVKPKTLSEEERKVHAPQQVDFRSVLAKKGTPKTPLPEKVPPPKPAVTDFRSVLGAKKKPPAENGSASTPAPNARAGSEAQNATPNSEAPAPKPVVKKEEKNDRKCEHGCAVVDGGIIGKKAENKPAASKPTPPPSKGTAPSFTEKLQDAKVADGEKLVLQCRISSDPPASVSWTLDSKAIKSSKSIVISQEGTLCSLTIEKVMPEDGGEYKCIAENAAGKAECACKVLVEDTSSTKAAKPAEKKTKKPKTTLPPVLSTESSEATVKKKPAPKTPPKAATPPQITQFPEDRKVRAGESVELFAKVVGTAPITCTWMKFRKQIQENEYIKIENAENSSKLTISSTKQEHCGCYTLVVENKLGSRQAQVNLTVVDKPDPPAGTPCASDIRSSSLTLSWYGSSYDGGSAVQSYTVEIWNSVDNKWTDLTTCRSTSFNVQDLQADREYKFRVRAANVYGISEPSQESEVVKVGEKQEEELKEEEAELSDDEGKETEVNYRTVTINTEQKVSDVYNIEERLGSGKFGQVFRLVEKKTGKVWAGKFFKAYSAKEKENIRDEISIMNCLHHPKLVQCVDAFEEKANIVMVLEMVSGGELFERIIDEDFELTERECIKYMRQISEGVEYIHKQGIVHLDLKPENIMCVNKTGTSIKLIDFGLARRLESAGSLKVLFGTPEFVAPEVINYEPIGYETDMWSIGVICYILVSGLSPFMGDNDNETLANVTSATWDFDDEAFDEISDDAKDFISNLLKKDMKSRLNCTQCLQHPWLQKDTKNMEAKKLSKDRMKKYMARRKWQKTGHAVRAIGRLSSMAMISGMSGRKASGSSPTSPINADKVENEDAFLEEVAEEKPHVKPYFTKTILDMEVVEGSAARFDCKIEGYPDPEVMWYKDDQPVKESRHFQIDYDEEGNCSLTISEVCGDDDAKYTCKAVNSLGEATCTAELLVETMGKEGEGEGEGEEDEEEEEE
ASSAY INFO: Inhibition of Smooth muscle myosin light chain kinase of chicken gizzard
OBSERVABLE: pIC50
For clarity, pIC50 is expressed as the negative log10 of concentration in mol/L.

Return the recorded pIC50 value; entry: COC(=O)[C@@]1(O)C[C@H]2O[C@]1(C)n1c3ccccc3c3c4c(c5c6ccccc6n2c5c31)C(=O)NC4 [K-252A] 7.70

====

ASSAYED SYSTEM: Choline O-acetyltransferase (Rattus norvegicus)
ASSAY INFO: Neurotrophic activity as measured by the ability to enhance basal forebrain choline acetyl transferase at 50 nM
Assay type: functional
Could you please report measured Control for the items listed next?
Report the value in % with no unit label.

Give the reported Control for this molecule. COCc1ccc2c(c1)c1c3c(c4c5cc(COC)ccc5n5c4c1n2C1C[C@](O)(C(=O)OC)[C@]5(C)O1)CNC3=O 168

Determine its reported Control: COC(=O)[C@@]1(O)CC2O[C@]1(C)n1c3ccc(CSC(C)C)cc3c3c4c(c5c6cc(CSC(C)C)ccc6n2c5c31)C(=O)NC4 224

Input CCSCc1ccc2c(c1)c1c3c(c4c5cc(CSCC)ccc5n5c4c1n2C1C[C@](O)(C(=O)OC)[C@]5(C)O1)CNC3=O , output reported Control. 143

Answer with the recorded Control for the molecule listed here: CCCCSCc1ccc2c(c1)c1c3c(c4c5cc(CSCCCC)ccc5n5c4c1n2C1C[C@](O)(C(=O)OC)[C@]5(C)O1)CNC3=O 143

Provide only the value of recorded Control for COC(=O)[C@@]1(O)C[C@H]2O[C@]1(C)n1c3ccccc3c3c4c(c5c6ccccc6n2c5c31)C(=O)NC4 [K-252A] 148
